test method notes: COS7 lysate on small-molecule microarray, probe aHis, 635 nm (AID 1123);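 further: z-score combines 667nm fluorescence intensity with signal-to-noise per printed compound spot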
experimental conditions: COS7 cell lysate, fluorescence, higher = more signal
As shown below, each of these compounds has a reported composite z-score value.
quantity kind: composite z-score

compound=C=CCOC(=O)[C@H]1[C@@H]2C(=O)O[C@@H](c3ccccc3)[C@@H](c3ccccc3)N2[C@@H](c2ccc(OCCOC(=O)[C@H]3C[C@H]4C(=O)N5CCC[C@H]5C(=O)N4[C@H]3c3cccc(OCCO)c3)cc2)[C@]12C(=O)Nc1ccc(I)cc12 endpoint_result=3.06
compound="CC(CCN1CCCCc2nc(C)c(C)cc21)=NOC(C)CN1CCCCc2nc(C)c(C)cc21 (stereo not drawn)" endpoint_result=1.12
compound=COc1ccc(O[C@H]2C=C[C@@H](c3ccccc3)O[C@@H]2COC(=O)N2CCCCC2)cc1 endpoint_result=-0.482

----------
# reported z-score; entries follow
test method notes: E. coli acrAB mutant growth effects, primary screen, E. coli filamentation inducers, strain DRC39, OD650, 24 h (AID 1178);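 further: growth measured as culture turbidity by optical density at 650 nm; test concentration not given here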
experimental conditions: higher = more signal, called active from +8 up or from −8 down
quantity kind: z-score

smiles_repr=CCOC(=O)NN=C1C[C@@H](O)[C@@H](O)[C@@H]2[C@@H]3C(=O)N(C[C@@H]4CCCO4)C(=O)[C@@H]3CC[C@@H]12 endpoint_result=0.914
smiles_repr=COC(=O)c1c(CC[C@@H](CO)NC(=O)N[C@H](Cc2ccccc2)Cn2cc(-c3ccccc3N)nn2)oc(C(C)=O)c1C(=O)OC endpoint_result=1.18
smiles_repr=CCN1C(=O)[C@H]2[C@H]3[C@H](O)[C@H](O)CC(=NO[C@@H]4O[C@H](CO)[C@@H](O)[C@H](O)[C@H]4O)[C@@H]3CC[C@H]2C1=O endpoint_result=0.226
smiles_repr=C[C@H](c1ccccc1)N1C(=O)[C@H]2[C@H]3[C@H](O)[C@H](O)CC(=O)[C@@H]3CC[C@H]2C1=O endpoint_result=-0.159

----------
Item-by-item account of z-score
test method notes: RPMI8226 myeloma cell viability, profiling panel, resazurin fluorescence, basal, 24 h, PK04 Diversity Set (AID 1180);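 further: RPMI8826 multiple myeloma cell line at 5000 cells per well; test concentration not given here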
experimental conditions: higher = more signal
quantity kind: z-score

compound=CC[C@@H](c1ccccc1)n1c(=O)n2n(c1=O)[C@H]1[C@H](O)[C@@H]3O[C@@H]3C(=NOCC(C)C)[C@H]1CC2 quantity_kind=z-score endpoint_result=0.0402
compound=COCCCNC(=O)[C@@]1(CCS(=O)(=O)c2ccccc2)N=C(c2ccc(OCCCO)cc2)O[C@H]1c1ccccc1 quantity_kind=z-score endpoint_result=0.806
compound=O=C1C[C@@H](O)[C@@H](O)[C@@H]2[C@@H]3C(=O)N(Cc4ccc5c(c4)OCO5)C(=O)[C@@H]3CC[C@@H]12 quantity_kind=z-score endpoint_result=-0.707
compound=CCOC(=O)CCN1C(=O)[C@H]2[C@H]3[C@H](O)[C@H](O)CC(=NOC[C@@H](O)COCc4ccco4)[C@H]3CC[C@H]2C1=O quantity_kind=z-score endpoint_result=-0.424
compound="CC(=O)O[C@H]1C2=C(C(=O)[C@@H]3O[C@@H]31)[C@H]1C(C)O[C@@H]2[C@@]23C(=O)[C@@H]4O[C@@H]4[C@@H](O)C2=CO[C@H](C)[C@@H]13 (some centres not stated)" quantity_kind=z-score endpoint_result=-1.12
compound=O=C1C[C@@H](O)[C@@H](O)[C@@H]2[C@@H]3C(=O)N(C4CCCCC4)C(=O)[C@@H]3CC[C@H]12 quantity_kind=z-score endpoint_result=0.288
compound="COc1ccc(O[C@H]2C=C[C@@H](c3ccccc3)O[C@@H]2COC(=O)CCC(C)=NOC(C)CN2CCCCc3nc(C)c(C)cc32)cc1 (some centres not stated)" quantity_kind=z-score endpoint_result=0.948
